In this section, each of the compounds is paired with its reported log10 of IC50.
- Test system: IL-10-induced JAK1/TYK2 signal pathway
- PROTOCOL DETAILS: IL-10-induced JAK1/TYK2 signal pathway STAT3-Luc reporter gene assay in U2OS cells
- Type: cell-based, human
- APPLIED CONDITIONS: Homo sapiens; U2OS cells, STAT3-Luc reporter, IL-10 10 ng/mL; read-out: Half inhibition dose (IC50) on IL-10-induced JAK1/TYK2 signal pathway
# values: log10(IC50), units nM

# count of solved cases: 7
compound="CONC(=O)c1cnc(NC(=O)C2CC2)cc1Nc1ccc(C2CC2)cc1N(C)S(C)(=O)=O [Example 12]" measured_property="log10 of IC50" result=-0.02
compound="CONC(=O)c1cnc(NC(=O)C2CC2)cc1Nc1cccc(-c2ncn(C)n2)c1OC [Example 69]" measured_property="log10 of IC50" result=0.44
compound="CCONC(=O)c1cnc(Nc2cccc(F)n2)cc1Nc1ccccc1NS(=O)(=O)C1CC1 [Example 116]" measured_property="log10 of IC50" result=-0.33
compound="CCONC(=O)c1cnc(Nc2cc(C)nc(C)n2)cc1Nc1ccc(C(F)(F)F)cc1N(C)S(C)(=O)=O [Example 202]" measured_property="log10 of IC50" result=-0.39
compound="CCONC(=O)c1cnc(Nc2ncc(F)cc2F)cc1Nc1cccc(-c2ncccn2)c1OC [Example 242]" measured_property="log10 of IC50" result=0.33
compound="CCONC(=O)c1cnc(Nc2cc(C)nc(C)n2)cc1Nc1ccccc1N(C)S(=O)(=O)C1CC1 [Example 173]" measured_property="log10 of IC50" result=-0.37
compound="C#Cc1ccc(Nc2cc(Nc3ccc(OC)cn3)ncc2C(=O)NOC)c(N(C)S(C)(=O)=O)c1 [Example 18]" measured_property="log10 of IC50" result=-0.11

Now look at this entry.
Task: Reported log10 of IC50 for CCONC(=O)c1cnc(Nc2cc(C)nc(C)n2)cc1Nc1cccc(-c2ncc(C)cn2)c1OC [Example 238] : what is it?
Output: -0.77

Where these numbers come from: patent US20240101548A1
